test: Clearance in Sprague-Dawley rat; type: ADME, organism-based; details: in vivo
measuredEndpoint: clearance (mL/min/kg)
Write the answer as a number in mL/min/kg, unit excluded.

get_value(item= O=C(O)CC1CC1c1ccc(OCCc2ccc3c(n2)NCCC3)c(F)c1 (stereo not drawn) , readout=clearance) returns 5.8

get_value(item= CC1(C)C(CC(=O)O)C1c1ccc(OCCc2ccc3c(n2)NCCC3)cc1 (stereo in doubt; (+)83) , readout=clearance) returns 0.9

get_value(item= O=C(O)CC1C(c2ccc(OCCc3ccc4c(n3)NCCC4)cc2)C1(Cl)Cl (stereo not drawn) , readout=clearance) returns 2.2

* * *

molecular target: Integrin alpha-V/beta-3 (Homo sapiens, UniProt P05106+P06756); test: Inhibition of human integrin alpha-v-beta-3 receptor by solid phase receptor assay; format: protein-complex assay
Sequence (P05106 27-788 limits assumed): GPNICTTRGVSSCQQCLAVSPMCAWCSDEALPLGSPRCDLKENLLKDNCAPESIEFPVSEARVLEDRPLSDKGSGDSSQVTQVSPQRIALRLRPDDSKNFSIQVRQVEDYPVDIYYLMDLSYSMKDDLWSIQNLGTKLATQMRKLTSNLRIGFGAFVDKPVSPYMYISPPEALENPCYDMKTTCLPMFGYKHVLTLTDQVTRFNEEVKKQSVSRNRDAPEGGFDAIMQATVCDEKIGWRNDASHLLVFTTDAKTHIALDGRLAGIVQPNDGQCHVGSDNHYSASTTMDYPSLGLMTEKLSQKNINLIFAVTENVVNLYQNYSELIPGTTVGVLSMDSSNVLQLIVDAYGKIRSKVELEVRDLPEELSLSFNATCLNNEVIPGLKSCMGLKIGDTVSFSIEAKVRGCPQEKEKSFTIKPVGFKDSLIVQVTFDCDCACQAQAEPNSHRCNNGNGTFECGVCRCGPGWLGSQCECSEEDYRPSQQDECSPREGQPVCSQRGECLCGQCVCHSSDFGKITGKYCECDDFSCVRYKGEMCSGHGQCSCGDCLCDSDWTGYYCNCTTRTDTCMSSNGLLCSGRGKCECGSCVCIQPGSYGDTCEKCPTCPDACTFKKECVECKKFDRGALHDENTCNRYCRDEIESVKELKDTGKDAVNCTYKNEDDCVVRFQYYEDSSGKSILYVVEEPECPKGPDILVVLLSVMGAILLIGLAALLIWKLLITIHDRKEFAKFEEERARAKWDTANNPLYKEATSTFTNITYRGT
Sequence (P06756 31-889 limits assumed): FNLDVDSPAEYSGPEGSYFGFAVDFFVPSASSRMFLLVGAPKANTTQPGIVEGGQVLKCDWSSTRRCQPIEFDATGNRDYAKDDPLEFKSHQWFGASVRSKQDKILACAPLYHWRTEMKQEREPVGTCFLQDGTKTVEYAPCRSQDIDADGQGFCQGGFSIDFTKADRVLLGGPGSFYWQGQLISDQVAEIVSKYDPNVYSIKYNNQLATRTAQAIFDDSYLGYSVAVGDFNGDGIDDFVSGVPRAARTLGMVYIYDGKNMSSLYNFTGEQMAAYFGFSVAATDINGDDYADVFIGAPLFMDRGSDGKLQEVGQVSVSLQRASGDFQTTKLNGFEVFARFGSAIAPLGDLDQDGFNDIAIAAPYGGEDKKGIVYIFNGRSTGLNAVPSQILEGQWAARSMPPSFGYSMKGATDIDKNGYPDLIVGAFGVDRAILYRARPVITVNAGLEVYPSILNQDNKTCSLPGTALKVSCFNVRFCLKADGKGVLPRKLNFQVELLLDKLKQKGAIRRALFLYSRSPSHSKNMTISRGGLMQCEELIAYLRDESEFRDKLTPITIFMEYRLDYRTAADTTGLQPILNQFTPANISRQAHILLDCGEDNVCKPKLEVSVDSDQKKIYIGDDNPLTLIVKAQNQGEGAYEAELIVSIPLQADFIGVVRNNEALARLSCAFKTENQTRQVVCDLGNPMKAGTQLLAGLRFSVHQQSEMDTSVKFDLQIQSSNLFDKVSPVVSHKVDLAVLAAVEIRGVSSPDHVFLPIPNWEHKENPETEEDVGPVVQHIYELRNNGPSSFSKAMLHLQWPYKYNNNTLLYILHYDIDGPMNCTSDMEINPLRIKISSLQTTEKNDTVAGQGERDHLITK
Sequence (P06756 891-1048 limits assumed): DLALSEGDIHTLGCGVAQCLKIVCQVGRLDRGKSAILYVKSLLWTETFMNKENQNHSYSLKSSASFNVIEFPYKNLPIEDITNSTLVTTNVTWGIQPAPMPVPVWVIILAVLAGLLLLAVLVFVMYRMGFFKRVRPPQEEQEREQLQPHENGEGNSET
Assign pIC50 to each entry below.
Please report pIC50 as the negative decimal logarithm of the molar concentration, giving only the number.

get_value(item= O=C(O)CC1C(c2ccc(OCCc3ccc4c(n3)NCCC4)cc2)C1(Cl)Cl (stereo not given) , readout=pIC50) returns 8.80

get_value(item= O=C(O)CC1CC1c1ccc(OCCc2ccc3c(n2)NCCC3)c(F)c1 (stereo not given) , readout=pIC50) returns 9.30

get_value(item= O=C(O)CC1CC1c1ccc(OCCc2ccc3c(n2)NCCC3)cc1 (single isomer, unassigned; (-)) , readout=pIC50) returns 7.80

get_value(item= O=C(O)CC(Cc1ccc(OCCCNc2ccccn2)cc1)c1cccnc1 (stereo not given) , readout=pIC50) returns 9.30

get_value(item= O=C(O)CCC1CC1c1ccc(OCCc2ccc3c(n2)NCCC3)nc1 (stereo not given) , readout=pIC50) returns 6.33

get_value(item= CC1(C)[C@H](c2ccc(OCCc3ccc4c(n3)NCCC4)cc2)[C@@H]1CC(=O)O (relative stereo) , readout=pIC50) returns 7.92

get_value(item= O=C(O)CCC1CC1c1cccc(OCCc2ccc3c(n2)NCCC3)c1 (stereo not given) , readout=pIC50) returns 6.02

get_value(item= O=C(O)CC1CC1c1ccc(OCCc2ccc3c(n2)NCCC3)nc1 (stereo not given) , readout=pIC50) returns 5.72

get_value(item= O=C(O)CC1CC1c1cccc(OCCc2ccc3c(n2)NCCC3)c1 (stereo not given) , readout=pIC50) returns 6.11

get_value(item= O=C(O)CC1C(c2ccc(OCCc3ccc4c(n3)NCCC4)cc2)C1(Br)Br (stereo not given) , readout=pIC50) returns 8.48

* * *

assay: Cmax in Sprague-Dawley rat; type: ADME, organism-based; details: Sprague-Dawley, in vivo
measuredEndpoint: Cmax
The number alone won't do; follow it with the unit.

get_value(item= CC1(C)C(CC(=O)O)C1c1ccc(OCCc2ccc3c(n2)NCCC3)cc1 (stereo in doubt; (+)83) , readout=Cmax) returns 33000 ng/mL

get_value(item= O=C(O)CC1CC1c1ccc(OCCc2ccc3c(n2)NCCC3)cc1 (stereo in doubt; 7) , readout=Cmax) returns 24500 ng/mL

get_value(item= O=C(O)CC1CC1c1ccc(OCCc2ccc3c(n2)NCCC3)c(F)c1 (centres undefined) , readout=Cmax) returns 15000 ng/mL

get_value(item= O=C(O)CC1C(c2ccc(OCCc3ccc4c(n3)NCCC4)cc2)C1(Cl)Cl (centres undefined) , readout=Cmax) returns 17400 ng/mL

* * *

molecular target: Integrin alpha-V/beta-1 (Homo sapiens, UniProt P05556+P06756); test: Inhibition of integrin alphavbeta1 receptor expressed in HEK293 cells
Sequence (P05556 21-798 limits assumed, one chain of several): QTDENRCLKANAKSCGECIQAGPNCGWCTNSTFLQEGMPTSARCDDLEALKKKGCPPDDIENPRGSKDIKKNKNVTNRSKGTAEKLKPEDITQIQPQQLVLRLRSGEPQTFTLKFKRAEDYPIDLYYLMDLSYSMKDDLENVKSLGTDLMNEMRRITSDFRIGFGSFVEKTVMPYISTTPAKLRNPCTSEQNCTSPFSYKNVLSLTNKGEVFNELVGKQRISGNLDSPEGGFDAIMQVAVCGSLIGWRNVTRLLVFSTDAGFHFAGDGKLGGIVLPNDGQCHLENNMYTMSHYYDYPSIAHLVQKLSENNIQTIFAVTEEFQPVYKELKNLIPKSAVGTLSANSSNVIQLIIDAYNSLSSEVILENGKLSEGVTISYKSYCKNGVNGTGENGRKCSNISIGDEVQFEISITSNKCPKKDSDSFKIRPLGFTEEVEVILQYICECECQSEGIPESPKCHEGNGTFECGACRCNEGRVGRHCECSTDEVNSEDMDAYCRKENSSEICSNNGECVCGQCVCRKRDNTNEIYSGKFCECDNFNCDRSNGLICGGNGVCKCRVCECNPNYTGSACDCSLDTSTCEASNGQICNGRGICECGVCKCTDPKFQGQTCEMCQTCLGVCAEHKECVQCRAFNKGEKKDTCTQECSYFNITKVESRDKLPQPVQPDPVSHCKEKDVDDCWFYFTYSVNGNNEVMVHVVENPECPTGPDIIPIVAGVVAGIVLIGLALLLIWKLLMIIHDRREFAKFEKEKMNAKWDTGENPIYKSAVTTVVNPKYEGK
pIC50: −log10 of the molar value.
Cut-off 7 on pIC50, inclusive. At or above means 1; below means -1.

In plain terms: is recorded pIC50 at least 7 for O=C(O)CC1CC1c1ccc(OCCc2ccc3c(n2)NCCC3)c(F)c1 (stereo not drawn) ?
1

In plain terms: is recorded pIC50 at least 7 for O=C(O)CC(Cc1ccc(OCCCNc2ccccn2)cc1)c1cccnc1 (stereo not drawn) ?
1

In plain terms: is recorded pIC50 at least 7 for O=C(O)CC1CC1c1ccc(OCCc2ccc3c(n2)NCCC3)cc1 (single isomer, unassigned; (-)) ?
-1

In plain terms: is recorded pIC50 at least 7 for O=C(O)CC1CC1c1ccc(OCCc2ccc3c(n2)NCCC3)cc1 (stereo in doubt; (+)7) ?
1

In plain terms: is recorded pIC50 at least 7 for O=C(O)CC1CC1c1ccc(OCCCNc2ccccn2)cc1 (stereo not drawn) ?
-1

* * *

assay: Half life in Swiss-Webster mouse at 2 mg/kg; assay type: ADME, organism-based; parameters: dose 2 mg/kg; conditions: in vivo
measuredEndpoint: half-life (h)
Write the answer as a number in h, unit excluded.

get_value(item= O=C(O)CC(Cc1ccc(OCCCNc2ccccn2)cc1)c1ccccc1 (centres undefined) , readout=half-life) returns 4.4

get_value(item= O=C(O)CC(Cc1ccc(OCCCNc2ccccn2)cc1)c1cccnc1 (centres undefined) , readout=half-life) returns 1.7

get_value(item= O=C(O)CC1CC1c1ccc(OCCCNc2ccccn2)cc1 (centres undefined) , readout=half-life) returns 2.3

get_value(item= O=C(O)CC1CC1c1ccc(OCCc2ccc3c(n2)NCCC3)cc1 (stereo in doubt; 7) , readout=half-life) returns 1.6

* * *

assay: Bioavailability in Sprague-Dawley rat; assay type: ADME, organism-based; conditions: Sprague-Dawley, in vivo
Assign bioavailability to each entry below.
Write the answer as a number in %, unit excluded.

get_value(item= O=C(O)CC1C(c2ccc(OCCc3ccc4c(n3)NCCC4)cc2)C1(Cl)Cl (stereo not drawn) , readout=bioavailability) returns 100

get_value(item= O=C(O)CC1CC1c1ccc(OCCc2ccc3c(n2)NCCC3)c(F)c1 (stereo not drawn) , readout=bioavailability) returns 100

get_value(item= CC1(C)C(CC(=O)O)C1c1ccc(OCCc2ccc3c(n2)NCCC3)cc1 (stereo in doubt; (+)83) , readout=bioavailability) returns 100

* * *

Assign AUC to each entry below.
assay: AUC in Swiss-Webster mouse at 20 mg/kg, iv; format: ADME, organism-based; design: dose 20 mg/kg, route intravenous; conditions: plasma
Write the answer as a number in ng·h/mL, unit excluded.

get_value(item= O=C(O)CC(Cc1ccc(OCCCNc2ccccn2)cc1)c1cccnc1 (stereo not given) , readout=AUC) returns 200

get_value(item= O=C(O)CC(Cc1ccc(OCCCNc2ccccn2)cc1)c1ccccc1 (stereo not given) , readout=AUC) returns 2300

get_value(item= CC(CC(=O)O)Cc1ccc(OCCCNc2ccccn2)cc1 (stereo not given) , readout=AUC) returns 106000

get_value(item= O=C(O)CC1CC1c1ccc(OCCCNc2ccccn2)cc1 (stereo not given) , readout=AUC) returns 14200

get_value(item= O=C(O)CC1CC1c1ccc(OCCc2ccc3c(n2)NCCC3)cc1 (stereo in doubt; 7) , readout=AUC) returns 378000

* * *

test: AUC in Swiss-Webster mouse at 20 mg/kg, po; assay type: ADME, organism-based; parameters: dose 20 mg/kg, route oral; conditions: plasma
measuredEndpoint: AUC (ng·h/mL)
Write the answer as a number in ng·h/mL, unit excluded.

get_value(item= O=C(O)CC(Cc1ccc(OCCCNc2ccccn2)cc1)c1cccnc1 (stereo not given) , readout=AUC) returns 300

get_value(item= O=C(O)CC1CC1c1ccc(OCCc2ccc3c(n2)NCCC3)cc1 (stereo in doubt; 7) , readout=AUC) returns 398000

get_value(item= CC(CC(=O)O)Cc1ccc(OCCCNc2ccccn2)cc1 (stereo not given) , readout=AUC) returns 195000

get_value(item= O=C(O)CC1CC1c1ccc(OCCCNc2ccccn2)cc1 (stereo not given) , readout=AUC) returns 18300

get_value(item= O=C(O)CC(Cc1ccc(OCCCNc2ccccn2)cc1)c1ccccc1 (stereo not given) , readout=AUC) returns 2800

* * *

target: Integrin alpha-V/beta-3 (Homo sapiens, UniProt P05106+P06756); assay: Inhibition of human integrin alpha-v-beta-3 receptor expressed in HEK293 cells; format: cell-based
measuredEndpoint: pIC50
Please report pIC50 as the negative decimal logarithm of the molar concentration, giving only the number.

get_value(item= O=C(O)CC1CC1c1ccc(OCCc2ccc3c(n2)NCCC3)cc1 (stereo in doubt; 7) , readout=pIC50) returns 8.52

get_value(item= CC1(C)C(CC(=O)O)C1c1ccc(OCCc2ccc3c(n2)NCCC3)cc1 (stereo in doubt; (+)83) , readout=pIC50) returns 9.40

get_value(item= O=C(O)CC1C(c2ccc(OCCc3ccc4c(n3)NCCC4)cc2)C1(Cl)Cl (stereo not given) , readout=pIC50) returns 8.82

get_value(item= O=C(O)CCC1CC1c1cccc(OCCc2ccc3c(n2)NCCC3)c1 (stereo not given) , readout=pIC50) returns 6.28

get_value(item= O=C(O)CC(Cc1ccc(OCCCNc2ccccn2)cc1)c1cccnc1 (stereo not given) , readout=pIC50) returns 8.70

get_value(item= O=C(O)CC1CC1c1ccc(OCCc2ccc3c(n2)NCCC3)c(F)c1F (stereo not given) , readout=pIC50) returns 8.00

get_value(item= O=C(O)CC1CC1c1ccc(OCCc2ccc3c(n2)NCCC3)cc1 (single isomer, unassigned; (-)) , readout=pIC50) returns 7.80

get_value(item= CNc1cccc(CCOc2ccc(C3CC3CC(=O)O)cc2)n1 (stereo not given) , readout=pIC50) returns 8.15

get_value(item= O=C(O)CC1CC1c1ccc(OCCc2ccc3c(n2)NCCC3)c(O)c1 (stereo not given) , readout=pIC50) returns 9.05

get_value(item= CC(CC(=O)O)Cc1ccc(OCCCNc2ccccn2)cc1 (stereo not given) , readout=pIC50) returns 7.29
